Provenance of the data: the supplement of paper PMC3545927

molecular target: furin, P09958; test: furin cleavage Z-score vs untreated control; higher = more cleavage, active = 3.5 or more, inactive = 1 or less, 8 variable residues between constant flanks; conditions: 30 min;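 further: purified furin at 1:10 enzyme:substrate in 50 mM HEPES pH 7.5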
Sequence (P09958 whole entry): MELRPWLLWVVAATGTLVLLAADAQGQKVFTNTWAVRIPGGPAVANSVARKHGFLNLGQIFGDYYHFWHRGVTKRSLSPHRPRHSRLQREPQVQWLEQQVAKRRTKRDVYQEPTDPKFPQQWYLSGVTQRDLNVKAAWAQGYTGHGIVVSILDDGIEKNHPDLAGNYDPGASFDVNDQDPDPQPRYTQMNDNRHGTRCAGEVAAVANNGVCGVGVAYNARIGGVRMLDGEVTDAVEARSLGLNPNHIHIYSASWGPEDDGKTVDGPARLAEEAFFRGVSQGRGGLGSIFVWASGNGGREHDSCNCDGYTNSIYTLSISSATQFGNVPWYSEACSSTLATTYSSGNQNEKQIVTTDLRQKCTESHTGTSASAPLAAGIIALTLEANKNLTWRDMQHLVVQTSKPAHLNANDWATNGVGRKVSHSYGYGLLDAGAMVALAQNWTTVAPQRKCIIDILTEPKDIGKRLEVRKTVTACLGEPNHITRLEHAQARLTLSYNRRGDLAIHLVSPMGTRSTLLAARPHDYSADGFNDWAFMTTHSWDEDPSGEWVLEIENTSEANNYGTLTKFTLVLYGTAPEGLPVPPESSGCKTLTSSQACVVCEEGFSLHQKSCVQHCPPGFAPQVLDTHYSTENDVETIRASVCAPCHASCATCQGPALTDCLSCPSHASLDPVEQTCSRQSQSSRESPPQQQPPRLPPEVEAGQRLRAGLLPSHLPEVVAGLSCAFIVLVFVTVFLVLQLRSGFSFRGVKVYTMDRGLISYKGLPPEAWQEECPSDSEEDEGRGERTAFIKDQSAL
The other results are listed elsewhere or left out. The hit rate among all sequences tested is not known here.
Outcomes: T (active), F (inactive)

{"macromolecule_sequence": "CAGKVRLRRAAGNASASA [FS-655]", "answer_label": "T"}
{"macromolecule_sequence": "CAVALSTTGEAGNASASA [HC843]", "answer_label": "F"}
{"macromolecule_sequence": "CAGVEHRLEAAGNASASA [HC478]", "answer_label": "F"}
{"macromolecule_sequence": "CASRKRAPRSAGNASASA [FS-963]", "answer_label": "T"}
{"macromolecule_sequence": "CARHKRRSKFAGNASASA [FS-2938]", "answer_label": "T"}
{"macromolecule_sequence": "CALEGRRKRAAGNASASA [FS-938]", "answer_label": "T"}
{"macromolecule_sequence": "CARIRRDANEAGNASASA [FS-3189]", "answer_label": "T"}
{"macromolecule_sequence": "CASPDAELIEAGNASASA [HC1271]", "answer_label": "F"}
{"macromolecule_sequence": "CANVSVAHDGAGNASASA [HC1555]", "answer_label": "F"}
{"macromolecule_sequence": "CARHKRKVFEAGNASASA [FS-1954]", "answer_label": "T"}
{"macromolecule_sequence": "CARSRKEVELAGNASASA [FS-2089]", "answer_label": "F"}
{"macromolecule_sequence": "CAVVCCHMSYAGNASASA [HC109]", "answer_label": "F"}
{"macromolecule_sequence": "CAEVPCHCPSAGNASASA [HC2380]", "answer_label": "F"}
{"macromolecule_sequence": "CARIKKDKKEAGNASASA [FS-2951]", "answer_label": "F"}
{"macromolecule_sequence": "CAEVVTSTWLAGNASASA [HC2245]", "answer_label": "F"}
{"macromolecule_sequence": "CAAEMEECSQAGNASASA [HC1783]", "answer_label": "F"}
{"macromolecule_sequence": "CARHKRETLKAGNASASA [FS-2678]", "answer_label": "T"}
{"macromolecule_sequence": "CATTMCSGSWAGNASASA [HC1866]", "answer_label": "F"}
{"macromolecule_sequence": "CAETITLPQDAGNASASA [HC897]", "answer_label": "F"}
{"macromolecule_sequence": "CANATRAPRSAGNASASA [FS-63]", "answer_label": "T"}
{"macromolecule_sequence": "CAETEVPCHRAGNASASA [HC2458]", "answer_label": "F"}
{"macromolecule_sequence": "CAMEECSQHVAGNASASA [HC1770]", "answer_label": "F"}
{"macromolecule_sequence": "CAARGGRAAIAGNASASA [HC1627]", "answer_label": "F"}
{"macromolecule_sequence": "CAGKVLIDILAGNASASA [HC1083]", "answer_label": "F"}
{"macromolecule_sequence": "CAIPVRAPRSAGNASASA [FS-442]", "answer_label": "T"}
